# Test system: Klebsiella aerogenes DSM 30053
# assay explanation: fold change of Putrescine concentration vs plate DMSO controls (fold change (ratio)); higher = more amine produced, active = hit call of the paper (significant change in both replicates, either direction)
# conditions: incubation time: 27 h, anaerobic, 37 °C
Where a name gives a salt, the structure may show the parent alone.
attribute measured: fold change of Putrescine concentration
Answers are plain numbers.

- compound: "Cc1cc2nc3ccc(=[N+](C)C)cc-3sc2cc1N [Tolonium chloride] (20 µM)"
  experimental system: "Klebsiella aerogenes DSM 30053"
  fold change of Putrescine concentration: 1
- compound: "CCOC(=O)CC(=O)N1CCSC1COc1ccccc1OC (stereo not drawn) [Moguisteine] (20 µM)"
  experimental system: "Klebsiella aerogenes DSM 30053"
  fold change of Putrescine concentration: 1.01
- compound: "N[C@@H](Cc1cc(I)c(Oc2cc(I)c(O)c(I)c2)c(I)c1)C(=O)O [(L) Thyroxine] (20 µM)"
  experimental system: "Klebsiella aerogenes DSM 30053"
  fold change of Putrescine concentration: 1
- compound: "OC(CCN1CCCCC1)(c1ccccc1)C1CC2C=CC1C2 (stereo not drawn) [Biperiden hydrochloride] (20 µM)"
  experimental system: "Klebsiella aerogenes DSM 30053"
  fold change of Putrescine concentration: 0.999
- compound: "CCOC(=O)[C@@](C)(N)Cc1ccc(O)c(O)c1 [Methyldopate hydrochloride] (20 µM)"
  experimental system: "Klebsiella aerogenes DSM 30053"
  fold change of Putrescine concentration: 0.975

Go through the list and state fold change of Putrescine concentration for each entry.
1. CC(=O)S[C@@H]1CC2=CC(=O)CC[C@]2(C)[C@H]2CC[C@@]3(C)[C@@H](CC[C@@]34CCC(=O)O4)[C@H]12 [Spironolactone] (20 µM)
2. COC(=O)[C@H](Cc1ccccc1)NC(=O)[C@H](CC(=O)O)NCCCc1ccc(OC)c(O)c1 [Advantame] (50 µM)
3. N=c1nc(N2CCCCC2)cc(N)n1O [Minoxidil] (20 µM)

Ans:
1. 1.01
2. 1.02
3. 0.987
